Catalogue of compounds with associated Kb
Species on record: Oryctolagus cuniculus
Experiment: In vitro myotropic property on the isolated rabbit aorta, expressed as pA2
Format: functional
Settings: read-out: pA2 (converted)
quantity: Kb (nM)

>>> value("CC[C@H](C)[C@H](NC(=O)[C@H](Cc1ccc(O)cc1)NC(=O)[C@@H](NC(=O)[C@H](CCCN=C(N)N)NC(=O)CNC)C(C)C)C(=O)N[C@@H](Cc1c[nH]cn1)C(=O)N1CCC[C@H]1C(=O)O")
31.6
>>> value("CC[C@H](C)[C@H](NC(=O)[C@H](Cc1ccc(OC)cc1)NC(=O)[C@@H](NC(=O)[C@H](CCCN=C(N)N)NC(=O)CNC)C(C)C)C(=O)N[C@@H](Cc1c[nH]cn1)C(=O)N1CCC[C@H]1C(N)=O")
20
>>> value("CC[C@H](C)[C@H](NC(=O)[C@H](Cc1ccc(O)cc1)NC(=O)[C@@H](NC(=O)[C@H](CCCN=C(N)N)NC(=O)CNC)C(C)C)C(=O)N[C@@H](Cc1c[nH]cn1)C(=O)N1CCC[C@H]1C(N)=O")
25.1

----------
Species on record: Oryctolagus cuniculus
Assay: In vitro myotropic property on the isolated rabbit aorta, expressed as pA2
Type: functional
Conditions: read-out: pA2 (converted)
Where a SMILES comes first, the peptide text is derived from it. [ ]: non-standard residue; d: D form. Sar = CNCC(=O)O
// reported Kb per item
quantity: Kb

>>> value("CC[C@H](C)[C@H](NC(=O)[C@H](Cc1ccc(O)cc1)NC(=O)[C@@H](NC(=O)[C@H](CCCN=C(N)N)NC(=O)[C@@H](N)CC(=O)O)C(C)C)C(=O)N[C@@H](Cc1c[nH]cn1)C(=O)N1CCC[C@@H]1C(=O)O")
"> 1000 nM"
>>> value("CC[C@H](C)[C@H](NC(=O)[C@H](Cc1ccc(O)cc1)NC(=O)[C@@H](NC(=O)[C@H](CCCN=C(N)N)NC(=O)CNC)C(C)C)C(=O)N[C@@H](Cc1c[nH]cn1)C(=O)N(C)C (H-[Sar]RVYIH-NMe2)")
"89.1 nM"
>>> value("CC[C@H](C)[C@H](NC(=O)[C@H](Cc1ccc(O)cc1)NC(=O)[C@@H](NC(=O)[C@H](CCCN=C(N)N)NC(=O)[C@@H](N)CC(=O)O)C(C)C)C(=O)N[C@@H](Cc1c[nH]cn1)C(=O)N(C)CC(N)=O (H-DRVYIH[Sar]-NH2)")
"> 1000 nM"
>>> value("CC[C@H](C)[C@H](NC(=O)[C@H](Cc1ccc(O)cc1)NC(=O)[C@@H](NC(=O)[C@H](CCCN=C(N)N)NC(=O)CNC)C(C)C)C(=O)N[C@@H](Cc1c[nH]cn1)C(=O)N(C)CC(N)=O (H-[Sar]RVYIH[Sar]-NH2)")
"> 1000 nM"
